test: rat acute oral toxicity; details: in vivo
observation.type: LD50 (mg/kg)
Reply with just the number (in mg/kg).

Field: example entries. Status: answers known.
COP(=O)(OC)O/C(=C\Cl)c1cc(Cl)c(Cl)cc1Cl | 480
Cc1ccc(/N=C/N(C)/C=N/c2ccc(C)cc2C)c(C)c1 | 400
OCC(F)(F)F | 153

**Query** // query LD50 value for entry CC(Oc1cc(Cl)c(Cl)cc1Cl)C(=O)O (stereo not given)
**Result** 650

**Query** Same read-out for `COc1ccc(OC)c([N+](=O)[O-])c1` ?
**Result** 2120

**Query** Please give the result for `C=CC(=O)Nc1ccccc1` too.
**Result** 300

**Query** Thanks! And `CCCCCCCO` ?
**Result** 500

**Query** What do we get for `CSSC` ?
**Result** 290

**Query** And then CCCCOCC(C)O (stereo not given) , what is it?
**Result** 2500

**Query** For `S=c1[nH]c(=S)[nH]c(=S)[nH]1` then?
**Result** 1180

**Query** # iterate: `N#CCC(=O)O`
**Result** 1010

**Query** Then what about the molecule CC(O)CN(CCCN(C)C)CCCN(C)C (stereo not given) ?
**Result** 1330

**Query** // same read-out, input: `O=C(O)C=CC(=O)O`
**Result** 708

**Query** Now give it for `N#CC(Cl)Cl` too.
**Result** 330

**Query** And for `CC(C)(C)CC(C)(C)c1ccc(O)cc1` ?
**Result** 4040
